- target: HLA B*5101 (Homo sapiens, UniProt P01889, A329T/A93T/A95T/C349S/D138N/D201E/D98Y/E187L/E204Q/E69T/G107R/I218V/K202T/L105A/L119W/N104I/Q94N/R106L/R155S/R180L/S101N/S121T/S35A/S48A/V306I/V36M/Y195H/Y91F)
- Format: binding
Classification scheme (Normalized average relative binding affinity (ARB), HLA B*5101): LOW = under 0.1, MEDIUM = from 0.1 up to 0.2, HIGH = 0.2 and over

Request: Into which bin does this sequence go? WXXXXXXXX [3064.0019]
Response: MEDIUM

Request: Classify this sequence: CXXXXXXXX [3064.0002]
Response: MEDIUM

Request: Dear colleague, I would appreciate it if you could identify the bin for XXFXXXXXX [3064.0045] and reply at your convenience.
Response: HIGH

Request: State the band of XXRXXXXXX [3064.0055]
Response: HIGH

Request: Category of XMXXXXXXX [3064.0031] , please.
Response: LOW

Request: Could you tell me which band XXVXXXXXX [3064.0058] belongs to?
Response: HIGH

Request: # classify by Normalized average relative binding affinity (ARB), HLA B*5101 band: XFXXXXXXX [3064.0025]
Response: LOW

Request: # bin lookup: classify AXXXXXXXX [3064.0001] by its Normalized average relative binding affinity (ARB), HLA B*5101
Response: LOW

Request: Determine which band this sequence sits in: VXXXXXXXX [3064.0018]
Response: MEDIUM

Request: Hey, which category is XQXXXXXXX [3064.0034] in, do you know?
Response: MEDIUM

Where do these numbers come from? They come from paper PMC2248166.
